- TARGET_UNDER_TEST: CB2 receptor (Homo sapiens, UniProt P34972)
- Sequence (P34972 whole entry): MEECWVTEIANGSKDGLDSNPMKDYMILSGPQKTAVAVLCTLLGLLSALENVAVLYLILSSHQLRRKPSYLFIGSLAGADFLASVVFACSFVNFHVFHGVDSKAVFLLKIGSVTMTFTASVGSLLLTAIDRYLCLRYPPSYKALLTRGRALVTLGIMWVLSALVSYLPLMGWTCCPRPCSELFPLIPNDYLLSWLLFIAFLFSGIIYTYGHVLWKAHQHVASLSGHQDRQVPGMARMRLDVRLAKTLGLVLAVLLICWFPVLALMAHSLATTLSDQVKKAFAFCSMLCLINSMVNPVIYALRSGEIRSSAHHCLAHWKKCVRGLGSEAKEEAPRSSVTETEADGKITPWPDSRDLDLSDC
- TEST_NAME: cell-based
- Set-up: host or cells: cAMP Hunter cell lines
- RUN_CONDITIONS: PathHunter agonist mode; read-out: CB2 Activity (β-Arrestin)
ASSAY_READOUT: pEC50
Value format note: pEC50 is -log10 of concentration (mol/L); just state the number.

-- ask Returns the measured pEC50 for the input molecule. Input: CCCCCCC(C)(C)c1cc(O)c2c(c1)OC(C)(C)[C@@H]1CC=C(C(=O)NN3CCCCC3)C[C@@H]21 [Compound 48]
-- reply 8.36

-- ask Returns the measured pEC50 for the input molecule. Input: CCCCCCC(C)(C)c1cc(O)c2c(c1)OC(C)(C)[C@@H]1CC=C(C(=O)NC(C)(C)C(F)(F)F)C[C@@H]21 [Compound 100]
-- reply 8.92

-- ask Returns the measured pEC50 for the input molecule. Input: CCCCCCC(C)(C)c1cc(O)c2c(c1)OC(C)(C)[C@@H]1CC=C(C(=O)NC3COC3)C[C@@H]21 [Compound 90]
-- reply 8.57

-- ask Returns the measured pEC50 for the input molecule. Input: CCCCCCC(C)(C)c1cc(O)c2c(c1)OC(C)(C)[C@@H]1CC=C(C(=O)N3CCNCC3)C[C@@H]21 [Compound 104]
-- reply 8.30

-- ask Returns the measured pEC50 for the input molecule. Input: CCCCCCC(C)(C)c1cc(O)c2c(c1)OC(C)(C)[C@@H]1CC=C(C(=O)NC3(C(F)(F)F)CC3)C[C@@H]21 [Compound 99]
-- reply 8.92

-- ask Returns the measured pEC50 for the input molecule. Input: CCCCCCC(C)(C)c1cc(O)c2c(c1)OC(C)(C)[C@@H]1CC=C(C(=O)NC[C@@H](O)CO)C[C@@H]21 [Compound 55]
-- reply 8.16
